Ref: PubChem BioAssay (NCI)

Listed here are molecules together with their documented growth.
Test system: K-562 leukemia
Experiment: NCI-60 one-dose screen, 48 h (100 = growth as untreated, 0 = no growth, -100 = all killed)
Details: 10 µM unless noted
Compounds without any hit were thinned out: in the full panel of roughly 83,000, 20% have a hit.
parameter: growth (%)

1. C[C@]12CC[C@@H]3c4ccc(O)c([N+](=O)[O-])c4CC[C@H]3[C@@H]1CC[C@@H]2NS(=O)(=O)c1ccc(C(F)(F)F)cc1
6.98
2. CC12CCC3C(CCC4CC(=O)/C(=C\O)CC43C)C1CCC(=O)O2 (stereo unspecified)
104
3. Cc1cc(C)c2c(c1)N1OC(C2)C[C@H]1/C=C/c1ccccc1 (stereo partly specified)
88.2
4. NC(=O)c1ncn([C@@H]2O[C@H](CO)[C@@H](O)[C@H]2O)n1
88.3
5. C=C(C)[C@@H]1C[C@H](O)Cc2cc(Cl)cc(Cl)c2N1
103
6. CCC[C@H](N[C@@H](C)C(=O)N1[C@H](C(=O)O)C[C@@H]2CCCC[C@@H]21)C(=O)OCC
116
7. Cc1cc(=O)n2n1-c1ccc(Cl)cc1NC(=O)C2
104
8. O=C1/C(=C/c2ccc([N+](=O)[O-])o2)Oc2ccc(Br)cc21
-1.79
9. Nc1nc(N)c([N+](=O)[O-])c(=O)[nH]1
108
10. CCCn1cnc2c1c(=O)n(CCCCC(C)=O)c(=O)n2C
90.9
11. COc1cccc2c1O/C(=C\c1c([N+](=O)[O-])ncn1C)C2=O
89.9

* * *

Tested on: EKVX NSCLC
Test: NCI-60 one-dose screen, 48 h (100 = growth as untreated, 0 = no growth, -100 = all killed)
Details: 10 µM unless noted
Protocol: Growth inhibition of the EKVX human Non-Small Cell Lung tumor cell line is measured as a screen for anti-cancer activity. Cells are grown in 96 well plates and exposed to the test compound for 48 hours. Compounds are tested at a single concentration, which is 10^-5 M for most compounds. The reported endpoint is percent growth (GI% or GIPRCNT), where numbers from 0 - 100% represent growth inhibition, and numbers from -100% - 0 represent cell death. […]
Compounds without any hit were thinned out: in the full panel of roughly 83,000, 20% have a hit.
parameter: growth (%)

1) ClC1=C(Cl)C(Cl)=C(Cl)C1=C/C=C/c1ccccc1
-6.52
2) Cc1cc(NC(=O)Nc2cccc3ccccc23)no1
102
3) Cn1cc(-c2csc(-c3cn(C)c4ncccc34)n2)c2cc(F)cnc21
77.7
4) CCOC(=O)C1C(=O)OC2CCCCC21 (stereo not given)
120
5) C[n+]1c2ccccc2c(Nc2ccc(N3CCCCC3)cc2)c2[nH]c3ccccc3c21
-56.1

* * *

Test system: M14 melanoma
Experiment: NCI-60 one-dose screen, 48 h (100 = growth as untreated, 0 = no growth, -100 = all killed)
Conditions: 10 µM unless noted
The panel holds about 83,000 compounds, 20% with a hit somewhere; the sample as a whole holds those more often.
Rule: growth below 80% gives true (1). Equal to or above 80% gives false (0).

1. CC(C)(C)c1ccc(S(=O)(=O)O)s1
false (0)
2. COc1ccc(C(=O)COc2cccc(/C=C3\Oc4ccc5ccccc5c4C3=O)c2)cc1
true (1)
3. COc1ccc2c3c(c(OCCCN(C)C)nc2c1)-c1ccc(Cl)cc1C3=O
true (1)
4. Cc1nc(N)[nH]c(=O)c1C
false (0)
5. Cc1[nH]n(C(N)=S)c(=O)c1N=Nc1ccc(F)c(Cl)c1
false (0)
6. COc1ccc(OC)c(NC(=O)c2cc3oc4ccccc4c3cc2O)c1
false (0)
7. O=C1Nc2ccc(F)cc2/C1=C/c1nc(-c2ccc(F)cc2)n2ccccc12
false (0)
8. CCOC(=O)c1ccccc1OC(=O)NNc1ccccc1
true (1)
9. c1ccc(-c2nnc(Nc3nnc(-c4ccccc4)s3)s2)cc1
false (0)
